study-target: Cynomolgus monkey C5 (cynomolgus monkey, UniProt A0A2K5U1T1 19-1676)
assay-text: cell-based or functional assay
readout-label: Cyno CP % Max Inhibition, hemolysis assay, 5% serum

Query :: Requested read-out: Cyno CP % Max Inhibition, hemolysis assay, 5% serum. Entry: H4H11683N (antibody, human IgG4, V domains shown, tested with H4H prefix (human IgG4 Fc with S108P hinge mutation); variable regions follow the numerical identifier; also called H2M11683N) VH: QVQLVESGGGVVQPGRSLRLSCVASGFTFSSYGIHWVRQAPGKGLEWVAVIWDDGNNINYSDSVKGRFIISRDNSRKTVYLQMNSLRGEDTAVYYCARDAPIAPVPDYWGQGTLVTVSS VL: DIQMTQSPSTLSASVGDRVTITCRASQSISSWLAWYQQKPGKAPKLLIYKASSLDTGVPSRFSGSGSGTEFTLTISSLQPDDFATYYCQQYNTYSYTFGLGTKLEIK
Result :: 98.8%
